Where do these numbers come from? They come from ChEMBL document CHEMBL5390317.

Target: Voltage-gated inwardly rectifying potassium channel KCNH2 (Homo sapiens)
Sequence (Q12809 whole entry): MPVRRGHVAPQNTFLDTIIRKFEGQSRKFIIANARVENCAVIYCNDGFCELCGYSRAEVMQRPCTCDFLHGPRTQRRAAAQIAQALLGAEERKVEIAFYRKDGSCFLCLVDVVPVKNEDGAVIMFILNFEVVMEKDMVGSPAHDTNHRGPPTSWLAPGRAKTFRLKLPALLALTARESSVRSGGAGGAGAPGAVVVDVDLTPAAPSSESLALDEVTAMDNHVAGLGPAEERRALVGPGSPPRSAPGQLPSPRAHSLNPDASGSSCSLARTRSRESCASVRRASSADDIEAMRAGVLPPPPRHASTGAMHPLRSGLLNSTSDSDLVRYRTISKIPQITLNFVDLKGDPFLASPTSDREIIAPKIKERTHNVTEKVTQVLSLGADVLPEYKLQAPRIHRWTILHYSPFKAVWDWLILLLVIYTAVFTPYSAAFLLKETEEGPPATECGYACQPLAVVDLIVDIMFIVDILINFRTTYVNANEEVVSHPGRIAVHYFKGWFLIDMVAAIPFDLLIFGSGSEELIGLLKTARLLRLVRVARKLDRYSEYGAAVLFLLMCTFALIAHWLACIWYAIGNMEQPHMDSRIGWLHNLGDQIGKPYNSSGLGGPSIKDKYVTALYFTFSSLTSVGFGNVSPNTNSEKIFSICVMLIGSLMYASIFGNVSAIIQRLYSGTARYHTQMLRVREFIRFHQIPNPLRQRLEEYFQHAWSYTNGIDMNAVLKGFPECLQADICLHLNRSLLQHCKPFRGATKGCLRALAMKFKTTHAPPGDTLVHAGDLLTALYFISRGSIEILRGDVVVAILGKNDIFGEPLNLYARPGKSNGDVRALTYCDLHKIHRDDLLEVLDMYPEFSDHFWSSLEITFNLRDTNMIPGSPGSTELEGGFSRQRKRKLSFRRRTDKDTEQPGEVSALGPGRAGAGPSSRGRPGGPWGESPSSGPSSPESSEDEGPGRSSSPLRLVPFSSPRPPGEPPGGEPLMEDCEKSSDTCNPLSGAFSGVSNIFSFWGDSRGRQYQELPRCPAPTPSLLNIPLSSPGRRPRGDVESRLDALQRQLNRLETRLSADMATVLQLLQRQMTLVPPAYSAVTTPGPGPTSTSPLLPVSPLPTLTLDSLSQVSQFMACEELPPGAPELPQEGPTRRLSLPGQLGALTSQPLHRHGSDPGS
Assay: Inhibition of hERG potassium channel expressed in CHO cells by electrophysiological patch clamp assay
MEASURED PARAMETER: IC50

Look at this compound and give its reported IC50. N#CCOc1cc(F)c2c(c1)CC(CNCCC1CN(c3ccc4c(n3)NC(=O)CO4)C(=O)O1)C2 (stereo not given) 0.23 µM

Okay, and CN(C)CC(=O)Nc1cc(F)c2c(c1)CC(CNCCC1CN(c3cnc4c(n3)NC(=O)CO4)C(=O)O1)C2 (stereo not given) ? > 20 µM

Okay, and NC1(COc2cc(F)c3c(c2)CC(CNCCC2CN(c4cnc5c(n4)NC(=O)CO5)C(=O)O2)C3)CC1 (stereo not given) ? > 20 µM

Okay, and N#Cc1cc(OCCN)cc2c1CC(CNCCC1CN(c3ccc4c(n3)NC(=O)CO4)C(=O)O1)C2 (stereo not given) ? > 20 µM

Okay, and N#Cc1cc(OCC2(N)CC2)cc2c1CC(CNCCC1CN(c3ccc4c(n3)NC(=O)CO4)C(=O)O1)C2 (stereo not given) ? > 20 µM

* * *

Experiment: Lipophilicity, log D of compound at pH 7.4
Type: physicochemical
Conditions: buffer
MEASURED PARAMETER: logD

Look at this molecule and give its reported logD. CC(N)COc1cc(F)c2c(c1)CC(CCOCC1CN(c3cnc4c(n3)NC(=O)CO4)C(=O)O1)C2 (stereo unspecified) 0.22

* * *

Kindly supply the reported MIC values for the records listed here.
Tested on: Staphylococcus aureus
Assay: Antibacterial activity against Staphylococcus aureus ATCC 29213 assessed as inhibition in bacterial growth incubated for 20 to 24 hrs by CLSI based broth microdilution method
Type: functional
Settings: Staphylococcus aureus, ATCC 29213; time 20-24 hrs; read-out: MIC
Please respond with the number in µg/mL and leave the unit unwritten.

Look at this compound and give its reported MIC. CN(C(=O)CN1CCC1)c1cc(F)c2c(c1)CC(CNCCC1CN(c3cnc4c(n3)NC(=O)CO4)C(=O)O1)C2 (stereo not drawn) 64

Okay, and CC(N)COc1cc(F)c2c(c1)CC(CCOCC1CN(c3cnc4c(n3)NC(=O)CO4)C(=O)O1)C2 (stereo not drawn) ? 0.25

Okay, and O=C(CN1CCC1)Nc1cc(F)c2c(c1)CC(CNCCC1CN(c3cnc4c(n3)NC(=O)CO4)C(=O)O1)C2 (stereo not drawn) ? 1

Okay, and C[C@H](C(=O)Nc1cc(F)c2c(c1)CC(CNCCC1CN(c3cnc4c(n3)NC(=O)CO4)C(=O)O1)C2)N(C)C (stereo in doubt; 2e) ? 0.25

Okay, and CS(=O)(=O)NCCOc1cc(C#N)c2c(c1)CC(CNCCC1CN(c3ccc4c(n3)NC(=O)CO4)C(=O)O1)C2 (stereo not drawn) ? 0.25

* * *

Experiment: Protein binding in mouse plasma assessed as free fraction
Assay type: ADME, cell-free
MEASURED PARAMETER: fraction unbound
In your answer, state the number alone without any accompanying words.

Look at this molecule and give its reported fraction unbound. NC1(COc2cc(F)c3c(c2)CC(CNCCC2CN(c4cnc5c(n4)NC(=O)CO5)C(=O)O2)C3)CC1 (stereo unspecified) 0.4

* * *

Kindly supply the reported MIC values for the records listed here.
Tested on: Pseudomonas aeruginosa
Test: Antibacterial activity against Pseudomonas aeruginosa ATCC 27853 assessed as inhibition in bacterial growth incubated for 20 to 24 hrs by CLSI based broth microdilution method
Assay type: functional
Conditions: time 20-24 hrs
Please respond with the number in µg/mL and leave the unit unwritten.

Look at this compound and give its reported MIC. N#CCOc1cc(F)c2c(c1)CC(CNCCC1CN(c3ccc4c(n3)NC(=O)CO4)C(=O)O1)C2 (configuration not stated) 4

Okay, and CS(=O)(=O)NCCOc1cc(C#N)c2c(c1)CC(CNCCC1CN(c3ccc4c(n3)NC(=O)CO4)C(=O)O1)C2 (configuration not stated) ? 1

Okay, and CC(N)COc1cc(F)c2c(c1)CC(CNCCC1CN(c3ccc4c(n3)NC(=O)CO4)C(=O)O1)C2 (configuration not stated) ? 0.25

Okay, and C[C@H](C(=O)Nc1cc(F)c2c(c1)CC(CNCCC1CN(c3cnc4c(n3)NC(=O)CO4)C(=O)O1)C2)N(C)C (stereo in doubt; 2e) ? 1

Okay, and N#Cc1cc(OCC2CNC2)cc2c1CC(CNCCC1CN(c3ccc4c(n3)NC(=O)CO4)C(=O)O1)C2 (configuration not stated) ? 0.5

* * *

Test system: Klebsiella pneumoniae
Test: Antibacterial activity against Klebsiella pneumoniae ATCC 700603 assessed as inhibition in bacterial growth incubated for 20 to 24 hrs by CLSI based broth microdilution method
Type: functional
Details: Klebsiella pneumoniae, ATCC 700603, time 20-24 hrs; read-out: MIC
# Met = MIC below 4 µg/mL (exclusive); Not met = MIC at/above 4 µg/mL

Is it true that MIC reported for C[C@@H](C(=O)Nc1cc(F)c2c(c1)CC(CNCCC1CN(c3cnc4c(n3)NC(=O)CO4)C(=O)O1)C2)N(C)C (stereo in doubt; 2i) is less than 4 µg/mL? Met

Okay, and C[C@H](C(=O)Nc1cc(F)c2c(c1)CC(CNCCC1CN(c3cnc4c(n3)NC(=O)CO4)C(=O)O1)C2)N(C)C (stereo in doubt; 2e) ? Met

Okay, and N#Cc1cccc2c1CC(CNCCC1CN(c3ccc4c(n3)NC(=O)CO4)C(=O)O1)C2 (centres undefined) ? Met

Okay, and O=C(O)COc1cc(F)c2c(c1)CC(CNCCC1CN(c3ccc4c(n3)NC(=O)CO4)C(=O)O1)C2 (centres undefined) ? Not met

Okay, and CC(N)COc1cc(F)c2c(c1)CC(CCOCC1CN(c3cnc4c(n3)NC(=O)CO4)C(=O)O1)C2 (centres undefined) ? Not met

Okay, and CN(C(=O)CN1CCC1)c1cc(F)c2c(c1)CC(CNCCC1CN(c3cnc4c(n3)NC(=O)CO4)C(=O)O1)C2 (centres undefined) ? Not met

Okay, and N#Cc1cc(OCC2CNC2)cc2c1CC(CNCCC1CN(c3ccc4c(n3)NC(=O)CO4)C(=O)O1)C2 (centres undefined) ? Not met

* * *

Kindly supply the reported MIC values for the records listed here.
System: Acinetobacter baumannii
Experiment: Antibacterial activity against Acinetobacter baumannii ATCC BAA-747 assessed as inhibition in bacterial growth incubated for 20 to 24 hrs by CLSI based broth microdilution method
Assay type: functional
Conditions: Acinetobacter baumannii, ATCC BAA-747, time 20-24 hrs; read-out: MIC

Look at this compound and give its reported MIC. O=C(O)COc1cc(F)c2c(c1)CC(CNCCC1CN(c3ccc4c(n3)NC(=O)CO4)C(=O)O1)C2 (configuration not stated) > 64 µg/mL

Okay, and N#Cc1cc(OCC2(N)CC2)cc2c1CC(CNCCC1CN(c3ccc4c(n3)NC(=O)CO4)C(=O)O1)C2 (configuration not stated) ? ≤ 0.06 µg/mL

Okay, and CN(C(=O)CN1CCC1)c1cc(F)c2c(c1)CC(CNCCC1CN(c3cnc4c(n3)NC(=O)CO4)C(=O)O1)C2 (configuration not stated) ? > 64 µg/mL

Okay, and C[C@@H](N)COc1cc(F)c2c(c1)CC(CN1CCC3(CC1)CN(c1cnc4c(n1)NC(=O)CO4)C(=O)O3)C2 (some centres not stated) ? ≤ 0.06 µg/mL

Okay, and NC1(COc2cc(F)c3c(c2)CC(CNCCC2CN(c4ccc5c(n4)NC(=O)CO5)C(=O)O2)C3)CC1 (configuration not stated) ? ≤ 0.06 µg/mL

Okay, and N#Cc1cccc2c1CC(CNCCC1CN(c3ccc4c(n3)NC(=O)CO4)C(=O)O1)C2 (configuration not stated) ? ≤ 0.06 µg/mL

Okay, and CN(C)C(C)(C)C(=O)Nc1cc(F)c2c(c1)CC(CNCCC1CN(c3cnc4c(n3)NC(=O)CO4)C(=O)O1)C2 (configuration not stated) ? ≤ 0.06 µg/mL

* * *

System: Staphylococcus aureus
Assay: Antibacterial activity against Staphylococcus aureus ATCC 29213 assessed as inhibition in bacterial growth incubated for 20 to 24 hrs by CLSI based broth microdilution method
Format: functional
Details: Staphylococcus aureus, ATCC 29213; time 20-24 hrs; read-out: MIC
MEASURED PARAMETER: MIC

Look at this compound and give its reported MIC. O=C(O)COc1cc(F)c2c(c1)CC(CNCCC1CN(c3ccc4c(n3)NC(=O)CO4)C(=O)O1)C2 (stereo not drawn) > 64 µg/mL

Okay, and CN(C)C(C)(C)C(=O)Nc1cc(F)c2c(c1)CC(CNCCC1CN(c3cnc4c(n3)NC(=O)CO4)C(=O)O1)C2 (stereo not drawn) ? ≤ 0.06 µg/mL

Okay, and CC(N)COc1cc(F)c2c(c1)CC(CNCCC1CN(c3ccc4c(n3)NC(=O)CO4)C(=O)O1)C2 (stereo not drawn) ? ≤ 0.06 µg/mL
